pIC50 listing for selected compounds.
Tested on: A549 (carcinomic human alveolar basal epithelial cell)
Test: CCK-8 cytotoxicity assay, A549
Type: cell-based
Conditions: Homo sapiens, A549, 48 h, A549 cells, 48h, CCK-8
pIC50: −log10 of the molar value.

1. O=P(c1ccccc1)(c1ccccc1)c1ccc2nc(-c3ccc(C(F)(F)F)cc3)c3c(c2c1)-c1ccccc1C3: < 4.30

For O=P(c1ccccc1)(c1ccccc1)c1ccc2c(c1)C1c3ccccc3CC1C(c1cccc3ccccc13)N2 (stereo not drawn) , write its pIC50.
< 4.30

Using the record for O=P(c1ccccc1)(c1ccccc1)c1ccc2c(c1)C1c3ccccc3CC1C(c1ccc(F)cc1)N2 (stereo not drawn) , state its measured pIC50.
4.70

###

Target: human TOP1 (Homo sapiens)
Construct: made in house; host or cells: Saccharomyces cerevisiae TOP1 null strain RS190, plasmid pHT143 (GAL promoter)
Experiment: TOP1 supercoiled plasmid DNA relaxation assay
Type: biochemical
Conditions: 5 min reaction; compounds at 100 μM; semiquantitative
Text: The effect of the previously prepared compounds as TOP1 inhibitors was studied. A conventional supercoiled plasmid relaxation assay was used to determine if the newly fused tetrahydroindenoquinolines 8, more aromatic indenoquinolines 9, and carbonyl derivatives 10 with phosphine oxide substituents inhibit human TOP1 activity by converting supercoiled plasmid DNA to its relaxed form. […]
Attribute measured: TOP1 Inhibition 5 min

Sample answers from the record:
1. O=C1c2ccccc2-c2c1c(-c1ccccc1)nc1ccc(P(=O)(c3ccccc3)c3ccccc3)cc21 [Compound 10a]: ++
2. O=P(c1ccccc1)(c1ccccc1)c1ccc2nc(-c3cccc4ccccc34)c3c(c2c1)-c1ccccc1C3: ++
3. O=C1c2ccccc2-c2c1c(-c1cccc3ccccc13)nc1ccc(P(=O)(c3ccccc3)c3ccccc3)cc21 [Compound 10g]: + (weak inhibition)
4. COc1ccc(-c2nc3ccc(P(=O)(c4ccccc4)c4ccccc4)cc3c3c2Cc2ccccc2-3)cc1: ++
5. O=[N+]([O-])c1ccc(C2Nc3ccc(P(=O)(c4ccccc4)c4ccccc4)cc3C3c4ccccc4CC23)cc1 (stereo not shown): + (weak inhibition)

Report measured TOP1 Inhibition 5 min; entry is O=P(c1ccccc1)(c1ccccc1)c1ccc2nc(-c3cccc(F)c3)c3c(c2c1)-c1ccccc1C3
+ (weak inhibition)

Quote TOP1 Inhibition 5 min reported for O=P(c1ccccc1)(c1ccccc1)c1ccc2nc(-c3ccc(F)cc3F)c3c(c2c1)-c1ccccc1C3 please.
++

Answer with reported TOP1 Inhibition 5 min of O=P(c1ccccc1)(c1ccccc1)c1ccc2c(c1)C1c3ccccc3CC1C(c1ccc(F)cc1)N2 (stereo not shown)
++

State its TOP1 Inhibition 5 min: O=P(c1ccccc1)(c1ccccc1)c1ccc2c(c1)C1c3ccccc3CC1C(c1cccc3ccccc13)N2 (stereo not shown)
+ (weak inhibition)

Return TOP1 Inhibition 5 min for the following compound: O=P(c1ccccc1)(c1ccccc1)c1ccc2nc(-c3ccc(Br)cc3)c3c(c2c1)-c1ccccc1C3
+ (weak inhibition)

Quick one: give measured TOP1 Inhibition 5 min for O=P(c1ccccc1)(c1ccccc1)c1ccc2nc(-c3ccccc3)c3c(c2c1)-c1ccccc1C3
++

###

Molecular target: human TOP1 (Homo sapiens)
Construct: made in house; host or cells: Saccharomyces cerevisiae TOP1 null strain RS190, plasmid pHT143 (GAL promoter)
Sequence (P11387 1-765): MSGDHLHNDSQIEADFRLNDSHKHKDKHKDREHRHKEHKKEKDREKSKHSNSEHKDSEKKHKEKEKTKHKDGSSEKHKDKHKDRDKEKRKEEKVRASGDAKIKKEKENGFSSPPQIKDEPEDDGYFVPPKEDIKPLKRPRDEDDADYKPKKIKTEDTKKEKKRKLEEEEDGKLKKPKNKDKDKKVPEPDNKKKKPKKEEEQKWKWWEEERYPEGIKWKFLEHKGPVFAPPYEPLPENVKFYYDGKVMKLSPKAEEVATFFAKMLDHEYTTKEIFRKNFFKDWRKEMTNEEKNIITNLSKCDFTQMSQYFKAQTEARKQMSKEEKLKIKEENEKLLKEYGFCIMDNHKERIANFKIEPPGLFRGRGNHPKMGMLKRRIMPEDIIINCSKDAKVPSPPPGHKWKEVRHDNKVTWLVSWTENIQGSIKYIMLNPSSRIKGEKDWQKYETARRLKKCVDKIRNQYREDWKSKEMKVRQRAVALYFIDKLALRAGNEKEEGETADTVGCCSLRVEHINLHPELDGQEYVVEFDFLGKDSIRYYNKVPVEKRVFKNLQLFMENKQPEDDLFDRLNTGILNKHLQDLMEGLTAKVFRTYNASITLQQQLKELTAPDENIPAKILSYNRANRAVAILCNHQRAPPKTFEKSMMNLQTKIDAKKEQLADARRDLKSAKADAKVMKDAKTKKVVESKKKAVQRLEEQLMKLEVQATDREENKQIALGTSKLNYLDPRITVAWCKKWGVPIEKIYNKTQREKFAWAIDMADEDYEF
Assay: TOP1 supercoiled plasmid DNA relaxation assay
Format: biochemical
Conditions: 5 min reaction; compounds at 100 μM; semiquantitative
Attribute measured: TOP1 Inhibition 5 min

1. O=C1c2ccccc2-c2c1c(-c1ccc(F)c(F)c1)nc1ccc(P(=O)(c3ccccc3)c3ccccc3)cc21 [Compound 10e]: ++
2. O=P(c1ccccc1)(c1ccccc1)c1ccc2c(c1)C1c3ccccc3CC1C(c1cccc(F)c1)N2 (centres unmarked): ++
